The reported numbers originate from the PETadex activity labels (doi:10.1016/s0014-5793(99)00813-3).

For each entry below, report its Km value.
substrate: p-NP-C4; settings: pH 7.1; 25 °C
Numbers only, in µM.

Some proteins with recorded Km:
unnamed (protein) MKPENKLPVLDLISAEMKTVVNTLQPDLPPWPATGTIAEQRQYYTLERRFWNAGAPEMATRAYMVPTKYGQVETRLFCPQPDSPATLFYLHGGGFILGNLDTHDRIMRLLASYSQCTVIGIDYTLSPEARFPQAIEEIVAACCYFHQQAEDYQINMSRIGFAGDSAGAMLALASALWLRDKQIDCGKVAGVLLWYGLYGLRDSVTRRLLGGVWDGLTQQDLQMYEEAYLSNDADRESPYYCLFNNDLTREVPPCFIAGAEFDPLLADSRLLYQTLAAHQQPCEFKLYPGTLHAFLHYSRMMKTADEALRDGAQFFTAQL | 500
unnamed (protein) MKPENKLPVLDLISAEMKTVVNTLQPDLPPWPATGTIAEQRQYYTLERRFWNAGAPEMATRAYMVPTKYGQVETRLFCPQPDSPATLFYLHGGGFILGNLDTHDRIMRLLASYSQCTVIGIDYTLSPEARFPQAIEEIVAACCYFHQQAEDYQINMSRIGFAGDSAAAMLALASALWLRDKQIDCGKVAGVLLWYGLYGLRDSVTRRLLGGVWDGLTQQDLQMYEEAYLSNDADRESPYYCLFNNDLTREVPPCFIAGAEFDPLLDDSRLLYQTLAAHQQPCEFKLYPGTLHAFLHYSRMMKTADEALRDGAQFFTAQL | 2000

Attention now turns to another entry.
Query: Given the entry unnamed (protein) MKPENKLPVLDLISAEMKTVVNTLQPDLPPWPATGTIAEQRQYYTLERRFWNAGAPEMATRAYMVPTKYGQVETRLFCPQPDSPATLFYLHGGGFILGNLDTHDRIMRLLASYSQCTVIGIDYTLSPEARFPQAIEEIVAACCYFHQQAEDYQINMSRIGFAGDSAGAMLALASALWLRDKQIDCGKVAGVLLWYGLYGLRDSVTRRLLGGVWDGLTQQDLQMYEEAYLSNDADRESPYYCLFNNDLTREVPPCFIAGAEFDPLLDDSRLLYQTLAAHQQPCEFKLYPGTLHAFLHYSRMMKTADEALRDGAQFFTAQL , report its measured Km.
Reply: 500
